measurementTarget: UniProtKB P97612
protocolDetails: Inhibition of FAAH-mediated [14C]anandamide hydrolysis in rat brain membrane
pIC50: −log10 of the molar value.
quantityName: pIC50

Here is how some compounds turned out for pIC50.
CCCCCCCCCCC[C@@H](C[C@@H]1OC(=O)[C@H]1CCCCCC)OC(=O)CNC(C)=O; < 4.30
CCCCCCCCCCC[C@@H](C[C@@H]1OC(=O)[C@H]1CCCCCC)OC(=O)[C@@H](NC(C)=O)C(C)C; < 4.30

Next compound, please.
Return value of pIC50 for input `CCCCCCCCCCC[C@@H](C[C@@H]1OC(=O)[C@H]1CCCCCC)OC(=O)[C@H](C)NC=O` , no commentary.
< 4.30

---

protocolDetails: Selectivity ratio of IC50 for human recombinant DAGLalpha over IC50 for rat brain membrane FAAH
The following compounds are listed with their measured Ratio IC50 values.
Respond with the number and no other words.

Here is how some compounds turned out for Ratio IC50.
CCCCCCCCCCC[C@@H](C[C@@H]1OC(=O)[C@H]1CCCCCC)OC(=O)[C@@H](NC(C)=O)C(C)C; 15
CCCCCCCCCCC[C@@H](C[C@@H]1OC(=O)[C@H]1CCCCCC)OC(=O)[C@@H](NC=O)C(C)C; 23
CCCCCCCCCCC[C@@H](C[C@@H]1OC(=O)[C@H]1CCCCCC)OC(=O)[C@@H](NC=O)[C@@H](C)CC; 23
CCCCCCCCCCC[C@@H](C[C@@H]1OC(=O)[C@H]1CCCCCC)OC(=O)[C@@H]1CCC(=O)N1; 15
CCCCCCCCCCC[C@@H](C[C@@H]1OC(=O)[C@H]1CCCCCC)OC(=O)[C@H](C)NC=O; 23

Next compound, please.
Return value of Ratio IC50 for input `CCCCCCCCCCC[C@@H](C[C@@H]1OC(=O)[C@H]1CCCCCC)OC(=O)[C@@H](NC(C)=O)[C@@H](C)CC` , no commentary.
15

---

measurementTarget: Cannabinoid receptor 2 (Homo sapiens, UniProt P34972)
Sequence (P34972 whole entry): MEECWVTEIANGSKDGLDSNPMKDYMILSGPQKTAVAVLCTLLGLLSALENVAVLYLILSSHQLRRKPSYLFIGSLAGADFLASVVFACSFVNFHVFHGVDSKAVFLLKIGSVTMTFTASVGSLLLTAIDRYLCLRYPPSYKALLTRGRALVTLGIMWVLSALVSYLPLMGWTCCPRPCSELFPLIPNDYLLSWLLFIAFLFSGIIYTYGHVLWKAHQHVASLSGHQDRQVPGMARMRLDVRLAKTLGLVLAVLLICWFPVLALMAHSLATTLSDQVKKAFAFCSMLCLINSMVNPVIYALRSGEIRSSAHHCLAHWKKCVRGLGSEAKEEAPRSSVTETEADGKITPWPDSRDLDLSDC
protocolDetails: Displacement of [3H]CP-55940 from human recombinant CB2 receptor expressed in HEK293 cells by scintillation counting
quantityName: Ki

Here is how some molecules turned out for Ki.
CCCCCCCCCCC[C@@H](C[C@@H]1OC(=O)[C@H]1CCCCCC)OC(=O)CCNC=O; 6.4 µM
CCCCCCCCCCC[C@@H](C[C@@H]1OC(=O)[C@H]1CCCCCC)OC(=O)[C@@H]1CCC(=O)N1; > 10 µM

Return value of Ki for input `CCCCCCCCCCC[C@@H](C[C@@H]1OC(=O)[C@H]1CCCCCC)OC(=O)[C@@H](NC=O)[C@@H](C)CC` , no commentary.
> 10 µM

Return value of Ki for input `CCCCCCCCCCC[C@@H](C[C@@H]1OC(=O)[C@H]1CCCCCC)OC(=O)CNC(C)=O` , no commentary.
> 10 µM

Return value of Ki for input `CCCCCCCCCCC[C@@H](C[C@@H]1OC(=O)[C@H]1CCCCCC)OC(=O)[C@@H](NC=O)C(C)C` , no commentary.
> 10 µM

---

measurementTarget: Fatty-acid amide hydrolase 1 (Rattus norvegicus)
Sequence (P97612 whole entry): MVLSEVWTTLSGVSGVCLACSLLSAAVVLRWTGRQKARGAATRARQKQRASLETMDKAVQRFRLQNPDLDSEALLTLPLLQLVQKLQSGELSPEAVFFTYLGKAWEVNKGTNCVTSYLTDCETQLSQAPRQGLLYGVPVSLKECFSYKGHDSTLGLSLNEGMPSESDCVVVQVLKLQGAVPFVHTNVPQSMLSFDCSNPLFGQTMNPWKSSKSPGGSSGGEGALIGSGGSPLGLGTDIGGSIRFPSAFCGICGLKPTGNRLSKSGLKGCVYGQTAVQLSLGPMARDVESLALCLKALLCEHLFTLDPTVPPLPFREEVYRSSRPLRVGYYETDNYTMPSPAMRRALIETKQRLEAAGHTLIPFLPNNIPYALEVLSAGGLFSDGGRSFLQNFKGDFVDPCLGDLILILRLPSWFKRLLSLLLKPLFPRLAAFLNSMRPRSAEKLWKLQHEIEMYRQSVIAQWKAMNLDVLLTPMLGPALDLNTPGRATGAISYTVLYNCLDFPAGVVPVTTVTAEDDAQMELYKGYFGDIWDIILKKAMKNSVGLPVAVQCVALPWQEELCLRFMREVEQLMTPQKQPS
protocolDetails: Inhibition of FAAH-mediated [14C]anandamide hydrolysis in rat brain membrane
pIC50: −log10 of the molar value.
quantityName: pIC50

Here is how some molecules turned out for pIC50.
CCCCCCCCCCC[C@@H](C[C@@H]1OC(=O)[C@H]1CCCCCC)OC(=O)CCNC=O; < 4.30
CCCCCCCCCCC[C@@H](C[C@@H]1OC(=O)[C@H]1CCCCCC)OC(=O)[C@@H](CC(C)C)NC(=O)OCc1ccccc1; < 4.30
CCCCCCCCCCC[C@@H](C[C@@H]1OC(=O)[C@H]1CCCCCC)OC(=O)[C@@H](NC(C)=O)[C@@H](C)CC; 5.18

Next molecule, please.
Return value of pIC50 for input `CCCCCCCCCCC[C@H](O)C[C@@H]1OC(=O)[C@H]1CCCCCC` , no commentary.
< 4.30
